# experiment-summary: Clearance in Sprague-Dawley rat at 10 mg/kg, iv
# Type: ADME, organism-based
# Parameters: dose 10 mg/kg, route intravenous
# cond: in vivo
outcome-measure: clearance (mL/min/kg)

[
  {
    "molecule": "NC(=O)[C@H]1CN(c2ccc(C3CCS(=O)(=O)CC3)c(F)c2)C(=O)O1",
    "reported-result": 12.9
  },
  {
    "molecule": "NC(=O)[C@H]1CN(c2cc(F)c(C3CC[S+]([O-])CC3)c(F)c2)C(=O)O1 (some centres not stated)",
    "reported-result": 12.8
  }
]

----------
# tested-on: Cytochrome P450 2C19 (Homo sapiens)
# Sequence (P33261 whole entry): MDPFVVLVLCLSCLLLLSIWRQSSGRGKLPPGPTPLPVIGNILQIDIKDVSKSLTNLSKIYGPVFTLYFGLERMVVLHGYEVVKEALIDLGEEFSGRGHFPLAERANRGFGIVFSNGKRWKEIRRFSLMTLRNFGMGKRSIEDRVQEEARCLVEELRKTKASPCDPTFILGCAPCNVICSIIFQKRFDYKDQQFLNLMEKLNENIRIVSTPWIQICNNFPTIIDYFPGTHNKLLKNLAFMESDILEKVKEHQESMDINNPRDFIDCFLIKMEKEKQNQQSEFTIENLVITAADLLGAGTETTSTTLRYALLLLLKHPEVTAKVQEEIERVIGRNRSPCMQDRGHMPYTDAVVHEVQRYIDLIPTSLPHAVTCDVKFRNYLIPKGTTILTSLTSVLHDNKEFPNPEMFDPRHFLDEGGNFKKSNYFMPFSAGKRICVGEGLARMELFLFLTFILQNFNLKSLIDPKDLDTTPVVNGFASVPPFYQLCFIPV

[
  {
    "structure-smiles": "NC(=O)[C@H]1CN(c2ccc([C@H]3CC[S@+]([O-])CC3)c(F)c2)C(=O)O1",
    "IC50": "> 900 µM"
  }
]
